system_tested: SWI/SNF-related matrix-associated actin-dependent regulator of chromatin subfamily A member 2 (Homo sapiens, UniProt P51531)
Sequence (P51531 whole entry): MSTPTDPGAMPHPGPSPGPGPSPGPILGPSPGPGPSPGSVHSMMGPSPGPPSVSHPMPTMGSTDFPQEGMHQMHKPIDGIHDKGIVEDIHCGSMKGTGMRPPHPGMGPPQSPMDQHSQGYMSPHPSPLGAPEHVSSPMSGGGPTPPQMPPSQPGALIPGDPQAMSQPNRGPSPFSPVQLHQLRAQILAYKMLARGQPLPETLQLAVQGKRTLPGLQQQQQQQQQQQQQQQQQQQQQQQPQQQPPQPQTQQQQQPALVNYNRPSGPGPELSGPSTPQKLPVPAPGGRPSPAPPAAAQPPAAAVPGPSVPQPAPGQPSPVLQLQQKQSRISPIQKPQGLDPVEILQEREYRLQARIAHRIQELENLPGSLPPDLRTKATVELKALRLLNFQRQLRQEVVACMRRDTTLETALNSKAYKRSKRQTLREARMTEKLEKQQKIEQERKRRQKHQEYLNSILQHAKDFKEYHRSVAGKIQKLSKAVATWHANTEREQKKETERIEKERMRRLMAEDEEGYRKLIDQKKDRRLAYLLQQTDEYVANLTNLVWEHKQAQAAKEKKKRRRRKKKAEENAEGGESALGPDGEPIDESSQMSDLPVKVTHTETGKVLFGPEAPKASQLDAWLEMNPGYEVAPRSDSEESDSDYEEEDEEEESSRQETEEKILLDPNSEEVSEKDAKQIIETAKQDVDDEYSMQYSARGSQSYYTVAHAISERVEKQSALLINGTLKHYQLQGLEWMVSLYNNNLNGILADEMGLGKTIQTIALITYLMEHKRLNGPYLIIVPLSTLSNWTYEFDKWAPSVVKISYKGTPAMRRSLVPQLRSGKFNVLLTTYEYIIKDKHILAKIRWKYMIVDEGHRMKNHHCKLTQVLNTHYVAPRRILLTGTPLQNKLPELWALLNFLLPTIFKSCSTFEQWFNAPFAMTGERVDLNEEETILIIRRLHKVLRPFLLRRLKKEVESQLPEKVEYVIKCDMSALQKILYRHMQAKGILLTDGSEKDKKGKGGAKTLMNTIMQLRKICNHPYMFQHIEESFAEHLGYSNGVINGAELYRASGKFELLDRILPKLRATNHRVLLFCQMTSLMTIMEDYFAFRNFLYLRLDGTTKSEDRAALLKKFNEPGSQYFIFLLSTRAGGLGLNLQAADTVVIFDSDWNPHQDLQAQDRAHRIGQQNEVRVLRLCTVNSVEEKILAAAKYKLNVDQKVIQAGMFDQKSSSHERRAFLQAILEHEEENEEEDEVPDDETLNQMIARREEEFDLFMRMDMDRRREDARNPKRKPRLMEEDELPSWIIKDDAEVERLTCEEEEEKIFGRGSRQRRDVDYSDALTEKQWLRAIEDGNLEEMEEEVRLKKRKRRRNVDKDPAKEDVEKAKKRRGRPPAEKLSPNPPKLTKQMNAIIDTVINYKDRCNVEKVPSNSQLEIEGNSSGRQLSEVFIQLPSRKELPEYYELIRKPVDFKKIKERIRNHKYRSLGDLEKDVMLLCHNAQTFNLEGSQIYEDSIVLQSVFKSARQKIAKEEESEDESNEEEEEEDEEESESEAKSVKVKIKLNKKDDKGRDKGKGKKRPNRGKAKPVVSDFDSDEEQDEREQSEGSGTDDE
protocol_text: Binding affinity to human SMARC2A expressed in BL21 (DE3)-R3-BirA cells assessed as change in melting temperature at 10 uM by sypro-orange dye-based differential scanning fluorimetric analysis
Format: cell-based
reported_property: ΔTm (°C)
# unit: °C | format: bare number

- mol: "O=C(/C=C/N1CCC(c2cc[nH]n2)CC1)c1ccccc1O"
  ΔTm (°C): 8.2

Look up ΔTm: "O=C(/C=C/N1CCN(c2ncccn2)CC1)c1ccccc1O"
2.9

Look up ΔTm: "O=C(/C=C/N1CCN(c2cccc(OCc3ccncc3)n2)CC1)c1ccccc1O"
7.4

Look up ΔTm: "O=C(/C=C/N1CC2CCC(CC2)C1)c1ccccc1O"
5.1

Look up ΔTm: "O=C(/C=C/N1CCCC1)c1ccccc1O"
5.5

Look up ΔTm: "O=C(/C=C/N1C[C@H]2C[C@@H]1CN2c1ccccn1)c1ccccc1O"
8.2
